pIC50: −log10 of the molar value.
Recorded pIC50 for compounds tested on Histone deacetylase 1 (Homo sapiens), drawn from a number of studies.
Sequence (Q13547 whole entry): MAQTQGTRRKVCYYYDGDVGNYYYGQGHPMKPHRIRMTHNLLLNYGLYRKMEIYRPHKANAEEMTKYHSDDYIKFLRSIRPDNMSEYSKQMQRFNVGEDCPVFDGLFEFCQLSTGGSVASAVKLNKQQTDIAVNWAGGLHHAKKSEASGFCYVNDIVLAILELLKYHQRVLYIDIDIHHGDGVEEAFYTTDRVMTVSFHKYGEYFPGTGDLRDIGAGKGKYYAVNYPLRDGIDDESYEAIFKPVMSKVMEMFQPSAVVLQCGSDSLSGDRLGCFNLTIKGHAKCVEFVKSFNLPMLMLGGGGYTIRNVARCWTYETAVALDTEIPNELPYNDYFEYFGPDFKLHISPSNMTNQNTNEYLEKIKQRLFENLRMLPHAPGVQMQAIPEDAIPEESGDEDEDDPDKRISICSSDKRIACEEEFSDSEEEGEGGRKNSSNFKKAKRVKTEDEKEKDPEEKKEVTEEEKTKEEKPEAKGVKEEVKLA
Returns one of label 1 or label 0; label 1 when pIC50 is >= 7.

Could you verify whether the entry `Nc1cc(F)ccc1NC(=O)c1ccc(NC(=O)Cc2ccc(C(F)(F)F)cc2)cc1` shows pIC50 of no less than 7? label 0

Record `Nc1nc(-c2ccco2)c2cnn(Cc3ccc(C(=O)Nc4ccccc4N)cc3)c2n1` ; criterion: pIC50 no lower than 7. Met? label 1

Please check the record `COc1ccc(-c2nc(NCCOc3ccc(/C=C/C(=O)NO)cc3OC)cc3c2[nH]c2ccccc23)cc1` and state if its pIC50 is at or above 7. label 1

Is pIC50 at least 7? Consider `CC(C)CCc1c(OCCCCCCC(=O)NO)ccc2ccc(=O)oc12` label 1

pIC50 >= 7 for `COc1cc2nc(C)cc(NCC3CCN(c4ncc(C(=O)NO)cn4)CC3)c2cc1OC` ? label 1

Identify whether the reported pIC50 of the following compound is 7 or greater: `CS(=O)(=O)Cc1noc(-c2ccc(C(=O)C(F)(F)F)s2)n1` label 0

Could you verify whether the entry `CCCCCc1nc2cc(/C=C/C(=O)NO)ccc2n1CCN(C)CC` shows pIC50 of no less than 7? label 1

Has `O=C(CCCCCn1cc(Nc2ncc3ccn(Cc4cccc(F)c4)c3n2)cn1)NO` a recorded pIC50 greater than or equal to 7? label 0

Given the entry `CCCCCCCC(=O)SCC/C=C/[C@@H]1CC(=O)N[C@H](C(C)C)C(=O)N[C@H](C)C(=O)N[C@H](C(C)C)C(=O)NCC(=O)O1` , answer whether its pIC50 meets or surpasses 7. label 0

Please tell me: is the compound `Cc1nc(NC(=O)N2C[C@H](NS(=O)(=O)Cc3ccc(C(=O)NO)cc3)C[C@H]2C(N)=O)sc1-c1ccnc(C(C)(C)C(F)(F)F)c1` at or over 7 in terms of pIC50? label 0

# check: pIC50 of `O=C(NO)c1noc(-c2ccc(Br)cc2)n1` is greater than or equal to 7 label 0

Does pIC50 meet or surpass 7 for CN1c2ccc(NCc3ccc(/C=C/C(=O)NO)cc3)cc2C(=O)N2CCc3c([nH]c4ccc(O)cc34)C21 (stereo not drawn) ? label 1
